The reported measurements were obtained from PubChem BioAssay (NCI).

# Assay method text: NCI Yeast Anticancer Drug Screen. Data for the mlh1 rad18 strain (AID 175)
# Condition: S. cerevisiae mlh1 rad18 strain growth inhibition; at 5.0 µM (retest, dose inferred, filed as 0.5); stronger effect = higher value
Compounds without any hit were thinned out: in the full panel of roughly 79,000, 15% have a hit.
# reported growth inhibition; entries follow
Measure: growth inhibition (%)

INSERT INTO results (compound, reported) VALUES
  ('CSc1nc2nn(Cc3ccccc3)cc2c(=O)[nH]1', 20),
  ('CC1=NN(C(=O)c2ccncc2)C(=O)C1N=Nc1ccc(C)c([N+](=O)[O-])c1 (stereo unspecified)', 12),
  ('CCOC(=O)N(c1ccccc1)N(CC)C(=O)/C(C)=N/Nc1ccc([N+](=O)[O-])cc1', -1),
  ('S=c1sc2c(s1)SCCOCCOCCOCCS2', -15),
  ('NC(=O)N/N=C/c1ccc(Cl)s1', 1),
  ('Cc1cc(/C=N/Nc2ccc3cccc(O)c3n2)c(O)c2ncccc12', 58),
  ('Cc1ccc(S(=O)(=O)c2cc(O)c(O)c3ccc(Br)cc23)cc1', 9),
  ('CCCCCCCCCCCC(=O)N(CCCCCCCCC)CC(O)C(O)C(OC1OC(CO)C(O)C(O)C1O)C(O)CO (stereo unspecified)', 1),
  ('Oc1ccc(-c2ccccc2)cc1O', 27),
  ('CN(C(=O)c1cccs1)C(=S)N1CCN(c2ccccc2)CC1', -18),
  ('Cc1nn(C(=O)c2ccncc2)c(C)c1N=Nc1ccccc1[N+](=O)[O-]', 4);

---

# Assay method text: NCI Yeast Anticancer Drug Screen. Data for the rad50 strain (AID 155);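 note: 0% = growth of vehicle-only cultures of the same strain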
# Condition: S. cerevisiae rad50 strain growth inhibition; at 5.0 µM (retest, dose inferred, filed as 0.5)
# Experimental: Growth inhibition of yeast strains with defined genetic alterations is measured as a screen for potential anti-cancer activity. Selected strains with alterations in DNA damage repair or cell cycle control were exposed to compounds and growth inhibition was measured relative to vehicle treated controls. The strain used in this assay is rad50
The panel holds about 79,000 compounds, 15% with a hit somewhere; the sample as a whole holds those more often. The source made the active and inactive calls. Rule as the data show it: active = growth inhibition above about 70%; inactive = the rest.
Classes used: TRUE = active, FALSE = inactive

INSERT INTO assay_data (molecule, label) VALUES
  ('CCCCC1=NCCc2c1cc1c([nH]c3ccccc31)c2C', 'FALSE'),
  ('CC1NC(=O)OC1(C)c1ccccc1 (stereo not drawn)', 'FALSE'),
  ('C[N+](C)(CCCCCCOc1c(Br)cc(Br)cc1Br)Cc1ccc(Br)o1', 'TRUE'),
  ('CC1(C)N([O-])[N+](=O)C1(Br)c1ccccc1 (stereo not drawn)', 'FALSE'),
  ('Nc1nc(-c2cc3cc(Cl)ccc3o2)cs1', 'FALSE'),
  ('Cc1ccc(S(=O)(=O)C2C=CC=CC=C2)cc1', 'FALSE'),
  ('COc1ccc(C2c3cc4c(cc3OC(C)(O)C2C)OCO4)cc1 (stereo not drawn)', 'FALSE'),
  ('O=C(O)CC(C(=O)O)C(c1cccc2ccccc12)c1cccc2ccc3ccccc3c12 (stereo not drawn)', 'FALSE'),
  ('CCN(CC)c1ccc(NC(C(=O)c2ccccc2)c2ccc3c(c2)OCO3)cc1 (stereo not drawn)', 'FALSE'),
  ('COc1ccc(CCC2(C)OCCC(C)O2)cc1 (stereo not drawn)', 'FALSE'),
  ('Nc1nc(-c2ccc(Cl)cc2)cs1', 'FALSE'),
  ('S=C(Nc1ccc(Br)c(Cl)c1)SCc1ccc2c(c1)OCO2', 'FALSE'),
  ('N=Nc1c(OC(=O)Nc2ccccc2)[nH]c2ccccc12', 'FALSE'),
  ('Fc1cccc(CSc2ncnc3c2ncn3C2CCCS2)c1 (stereo not drawn)', 'FALSE'),
  ('COc1cc(O)c2c(c1)C(O)C(O)CC1OC1C(=O)/C=C/CC(C)OC2=O (stereo not drawn)', 'TRUE'),
  ('COc1cc(C2=NCCO2)cc(OC)c1OC', 'FALSE'),
  ('COc1ccc(C(c2ccc(OC)cc2)c2ccccc2C(=O)O)cc1', 'FALSE'),
  ('COc1ccc(N=Nc2ccc3oc(=O)c(C(=O)Nc4ccc(OC)cc4)cc3c2)cc1', 'FALSE'),
  ('Nc1ccccc1N=Nc1c(S(=O)(=O)O)cc2cc(S(=O)(=O)O)cc(O)c2c1O', 'FALSE'),
  ('C[n+]1c(/C=C/c2ccccc2Cl)sc2ccccc21', 'TRUE'),
  ('COC1OC(CI)C(OC(c2ccccc2)(c2ccccc2)c2ccccc2)C(OC(c2ccccc2)(c2ccccc2)c2ccccc2)C1OC(c1ccccc1)(c1ccccc1)c1ccccc1 (stereo not drawn)', 'FALSE'),
  ('BrCc1ccc2ccc3ccc(CBr)nc3c2n1', 'FALSE'),
  ('O=C1CC(=Nc2ccc([N+](=O)[O-])cc2)NN1c1c(Cl)cc(Cl)cc1Cl', 'FALSE');

---

# Assay method text: NCI Yeast Anticancer Drug Screen. Data for the bub3 strain (AID 167)
# Condition: S. cerevisiae bub3 mutant strain, at 5.0 µM (retest, dose inferred, filed as 0.5)
This is part of a sample that, as a whole, favours compounds with a hit. Of some 79,000 tested, about 15% had one in any assay. Calls of active or inactive are those of the source. No stated cut-off is given here; in the data, active means growth inhibition above about 70%; inactive means the rest.
Possible outcomes: active, inactive

INSERT INTO assay_data (compound, label) VALUES
  ('NC(=O)C1CCN(N=Nc2c(-c3ccccc3)n[nH]c2-c2ccccc2)CC1', 'active'),
  ('COC(=O)/C=C/c1cccc[n+]1[O-]', 'inactive'),
  ('CC12CC(Sc3ccccc3N1)c1ccccc1O2 (stereo unspecified)', 'inactive'),
  ('O=C1/C(=C/c2ccccc2)CCC/C1=C\c1ccc(O)c(CN2CCCCC2)c1', 'inactive'),
  ('CCOC(=O)C1SC(=Nc2ccc(Cl)cc2C)N=C1C (stereo unspecified)', 'inactive'),
  ('CCCNC(=O)c1cc2ccccc2cc1C(=O)OC', 'inactive'),
  ('CCCCOc1ccc(CN2CCOC2=O)cc1', 'inactive'),
  ('COc1cc2c(cc1O)CCCCC2', 'inactive'),
  ('CN=c1ss/c(=N\C(=S)N(C)C)n1-c1ccccc1', 'inactive'),
  ('C[C@]12C/C(=C/C(F)(F)F)C(=O)C[C@@H]1CC[C@@H]1[C@@H]2CC[C@]2(C)[C@@H](C(=O)O)CC[C@@H]12', 'active'),
  ('C/C(=N\NC(N)=S)C(CN1CCCCC1)C(C1=C(O)c2ccccc2OC1)c1ccccc1 (stereo unspecified)', 'inactive');

---

Entries and their growth inhibition values follow.
# Assay method text: NCI Yeast Anticancer Drug Screen. Data for the sgs1 mgt1 strain (AID 161);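 note: 0% = growth of cultures given vehicle only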
# Condition: S. cerevisiae sgs1 mgt1 strain, at 5.0 µM (retest, dose inferred, filed as 0.5), stronger effect = higher value
About 79,000 compounds went through this panel and 15% of them were active in at least one assay; those are over-represented in the sample as a whole.
Measure: growth inhibition (%)

INSERT INTO results (molecule, measure, reported) VALUES
  ('C[C@]12C/C(=C/C(F)(F)F)C(=O)C[C@@H]1CC[C@@H]1[C@@H]2CC[C@]2(C)[C@@H](C(=O)O)CC[C@@H]12', 'growth inhibition', 87),
  ('O=c1[nH]c(=O)c2cc([N+](=O)[O-])cc([N+](=O)[O-])c2[nH]1', 'growth inhibition', 12),
  ('Cc1cc(S(=O)(=O)Nc2nc(N)nc(N(C)C)n2)c(SC(C(=O)O)c2ccccc2)cc1Cl (stereo not given)', 'growth inhibition', -11),
  ('CN(Cc1cnc2nc(N[Si](C)(C)C)nc(N[Si](C)(C)C)c2n1)c1ccc(C(=O)NC(CCC(=O)O[Si](C)(C)C)C(=O)O[Si](C)(C)C)cc1 (stereo not given)', 'growth inhibition', 2),
  ('O=C1c2ccccc2CC(Br)c2ccccc21 (stereo not given)', 'growth inhibition', 3),
  ('O=C(COc1ccc(Cl)c(Cl)c1)Nc1ccc[n+](Cc2ccc(Cl)c(Cl)c2)c1', 'growth inhibition', 13),
  ('Cc1ccnc(NCCN(C)C)c1', 'growth inhibition', 3),
  ('CSC(=N)N1N=C2/C(=C/c3ccccc3)CCC[C@H]2[C@H]1c1ccccc1', 'growth inhibition', -13),
  ('COC(=O)N1C2C=CC(=O)C(C=C2)N1C(=O)OC (stereo not given)', 'growth inhibition', 0),
  ('Clc1ccc2c(Cl)c3c(nc2c1)CCCC3', 'growth inhibition', 2);

---

# Assay method text: NCI Yeast Anticancer Drug Screen. Data for the cln2 rad14 strain (AID 165);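 note: 0% = growth equal to vehicle treated cultures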
# Condition: S. cerevisiae cln2 rad14 strain, at 50.0 µM, stronger effect = higher value
Compounds without any hit were thinned out: in the full panel of roughly 79,000, 15% have a hit.
Recorded growth inhibition determines the label; the label ranges are lower range (below 50%), middle range (50% to below 90%), upper range (90% or more)

INSERT INTO measurements (compound, label) VALUES
  ('COC(=O)C(=O)C(C(=O)C(=O)Nc1ccc(C)cc1C)c1nc2ccccc2[nH]c1=O (stereo not drawn)', 'lower range'),
  ('CC(C)c1ccc(O)c(O)c(=O)c1 (tested in a mixture with another compound)', 'upper range'),
  ('CS/C(C#N)=C(\C#N)SC', 'lower range'),
  ('CCOCCNCc1ccc(Cl)c(Cl)c1', 'lower range'),
  ('Oc1ccc(N(Cc2ccccc2)Cc2ccccc2)cc1', 'upper range'),
  ('CCc1c(C)[nH]c2c([N+](=O)[O-])cccc12', 'upper range'),
  ('CC(C)(C)C(OC(=O)Nc1ccccc1)C(C)(C)C', 'lower range'),
  ('CCCCCCCCCCCCNC(=O)OCC(C)O (stereo not drawn) (tested in a mixture with another compound)', 'upper range'),
  ('O=[N+]([O-])c1ccc2nc(CCl)[nH]c2c1', 'middle range'),
  ('CCCCCCCCCCCC1=NCC(C)N1 (stereo not drawn)', 'lower range'),
  ('Oc1ccc(Br)cc1-c1nc2cc(Cl)c(Cl)cc2nc1-c1cc(Br)ccc1O', 'middle range'),
  ('COc1ccccc1/C=C1\Sc2scc(-c3ccc(O)c(O)c3)[n+]2C1=O', 'upper range'),
  ('CCCCCCCCCCN1Cc2ccccc2C1', 'upper range'),
  ('N#Cc1ccc2nc3ccc(N)cc3nc2c1', 'lower range'),
  ('NNC(=O)c1ccc(N)cc1O', 'middle range'),
  ('O=C(NCCNCCNCCNC(=O)c1cc(-c2ccccc2)nc2ccccc12)c1cc(-c2ccccc2)nc2ccccc12', 'upper range'),
  ('CC(=O)Nc1ccc(S(=O)(=O)N/N=C/c2cc(I)cc([N+](=O)[O-])c2O)cc1', 'middle range'),
  ('S=c1sc2c(s1)SCCOCCOCCOCCS2', 'lower range');
